Below is a list of entries, each paired with its recorded total protein half-life in vivo value.
# assayNotes: total protein half-life in vivo (active degradation + dilution); higher = more stable protein
# measurementContext: wild type E. coli NCM3722; growth: P-lim chemostat; doubling time 6 h
measureName: total protein half-life in vivo (h)

| sequence | endpointValue |
| --- | --- |
| MQDRNFDDIAEKFSRNIYGTTKGQLRQAILWQDLDRVLAEMGPQKLRVLDAGGGEGQTAIKMAERGHQVILCDLSAQMIDRAKQAAEAKGVSDNMQFIHCAAQDVASHLETPVDLILFHAVLEWVADPRSVLQTLWSVLRPGGVLSLMFYNAHGLLMHNMVAGNFDYVQAGMPKKKKRTLSPDYPRDPAQVYLWLEEAGWQIMGKTGVRVFHDYLREKHQQRDCYEALLELETRYCRQEPYITLGRYIHVTARKPQSKDKV | 5.32 |
| MIEWQDLHHSELSVSQLYALLQLRCAVFVVEQNCPYQDIDGDDLTGDNRHILGWKNDELVAYARILKSDDDLEPVVIGRVIVSEALRGEKVGQQLMSKTLETCTHHWPDKPVYLGAQAHLQNFYQSFGFIPVTEVYEEDGIPHIGMAREVIQA [P0AEH3] | 4.54 |

----------
Below is a list of entries, each paired with its recorded total protein half-life in vivo value.
# assayNotes: total protein half-life in vivo (active degradation + dilution); higher = more stable protein
# measurementContext: wild type E. coli NCM3722; growth: C-lim chemostat; doubling time 3 h
measureName: total protein half-life in vivo (h)

| sequence | endpointValue |
| --- | --- |
| MFQQQKDWETRENAFAAFTMGPLTDFWRQRDEAEFTGVDDIPVRFVRFRAQHHDRVVVICPGRIESYVKYAELAYDLFHLGFDVLIIDHRGQGRSGRLLADPHLGHVNRFNDYVDDLAAFWQQEVQPGPWRKRYILAHSMGGAISTLFLQRHPGVCDAIALTAPMFGIVIRMPSFMARQILNWAEAHPRFRDGYAIGTGRWRALPFAINVLTHSRQRYRRNLRFYADDPTIRVGGPTYHWVRESILAGEQVLAGAGDDATPTLLLQAEEERVVDNRMHDRFCELRTAAGHPVEGGRPLVIKGAYHEILFEKDAMRSVALHAIVDFFNRHNSPSGNRSTEV | 3.13 |
| MERIVVTLGERSYPITIASGLFNEPASFLPLKSGEQVMLVTNETLAPLYLDKVRGVLEQAGVNVDSVILPDGEQYKSLAVLDTVFTALLQKPHGRDTTLVALGGGVVGDLTGFAAASYQRGVRFIQVPTTLLSQVDSSVGGKTAVNHPLGKNMIGAFYQPASVVVDLDCLKTLPPRELASGLAEVIKYGIILDGAFFNWLEENLDALLRLDGPAMAYCIRRCCELKAEVVAADERETGLRALLNLGHTFGHAIEAEMGYGNWLHGEAVAAGMVMAARTSERLGQFSSAETQRIITLLKRAGLPVNGPREMSAQAYLPHMLRDKKVLAGEMRLILPLAIGKSEVRSGVSHELVLNAIADCQSA | 2.77 |
| MSNLTYLQGYPEQLLSQVRTLINEQRLGDVLAKRYPGTHDYATDKALWQYTQDLKNQFLRNAPPINKVMYDNKIHVLKNALGLHTAVSRVQGGKLKAKVEIRVATVFRNAPEPFLRMIVVHELAHLKEKEHNKAFYQLCCHMEPQYHQLEFDTRLWLTQLSLGQNKI | 3.09 |
| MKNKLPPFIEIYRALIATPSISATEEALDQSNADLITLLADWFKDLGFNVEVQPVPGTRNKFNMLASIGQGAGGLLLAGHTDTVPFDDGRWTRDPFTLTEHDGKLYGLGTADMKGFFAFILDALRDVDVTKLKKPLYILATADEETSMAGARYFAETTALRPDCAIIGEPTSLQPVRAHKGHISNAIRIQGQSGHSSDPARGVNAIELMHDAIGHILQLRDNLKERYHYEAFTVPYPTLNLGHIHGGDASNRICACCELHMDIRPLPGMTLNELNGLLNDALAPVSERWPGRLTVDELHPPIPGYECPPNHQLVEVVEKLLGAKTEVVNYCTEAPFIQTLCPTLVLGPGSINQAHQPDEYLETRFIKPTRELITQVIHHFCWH | 3.27 |
| METKNLTIGERIRYRRKNLKHTQRSLAKALKISHVSVSQWERGDSEPTGKNLFALSKVLQCSPTWILFGDEDKQPTPPVEKPVALSPKELELLELFNALPESEQDTQLAEMRARVKNFNKLFEELLKARQRTNKR | 3.21 |
| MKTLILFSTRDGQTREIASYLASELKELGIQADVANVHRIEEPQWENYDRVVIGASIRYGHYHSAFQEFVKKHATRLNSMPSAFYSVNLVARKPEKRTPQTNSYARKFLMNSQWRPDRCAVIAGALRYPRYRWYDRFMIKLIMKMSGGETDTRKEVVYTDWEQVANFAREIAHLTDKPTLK [P0ACB4] | 3.05 |
| MEALGMIETRGLVALIEASDAMVKAARVKLVGVKQIGGGLCTAMVRGDVAACKAATDAGAAAAQRIGELVSVHVIPRPHGDLEEVFPIGLKGDSSNL [P0ABF4] | 2.59 |
